- target_or_test_system: T1, recombinant human BCMA (in house) (human, UniProt Q02223 4-53, limits assumed)
- T1 construct: Analyte in the ProteOn runs; also called Human in house BCMA; In house human BCMA
- T1 chain (looked up): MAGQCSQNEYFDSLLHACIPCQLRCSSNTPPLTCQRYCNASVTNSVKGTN
- measurement_notes: SPR ProteOn XPR36, mAb captured on Protein A, 25C, run 2
property_name: binding result

binder	property_name	reading
CA8 humanised J7M2 (antibody, human IgG1, kappa, V domains shown, humanised, human IgG1/kappa) VH: QVQLVQSGAEVKKPGSSVKVSCKASGYTFTNYWMHWVRQAPGQGLEWMGATYRGHSDTYYNQKFKGRVTITADKSTSTAYMELSSLRSEDTAVYYCARGAIYDGYDVLDNWGQGTLVTVSS VL: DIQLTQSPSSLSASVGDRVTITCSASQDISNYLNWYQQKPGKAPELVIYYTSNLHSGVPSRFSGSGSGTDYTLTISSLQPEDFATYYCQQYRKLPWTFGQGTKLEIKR	binding result	binds
CA8 humanised J7M1 (antibody, human IgG1, kappa, V domains shown, humanised, human IgG1/kappa) VH: QVQLVQSGAEVKKPGSSVKVSCKASGYTFTNYWMHWVRQAPGQGLEWMGATYRGHSDTYYNQKFKGRVTITADKSTSTAYMELSSLRSEDTAVYYCARGAIYDGYDVLDNWGQGTLVTVSS VL: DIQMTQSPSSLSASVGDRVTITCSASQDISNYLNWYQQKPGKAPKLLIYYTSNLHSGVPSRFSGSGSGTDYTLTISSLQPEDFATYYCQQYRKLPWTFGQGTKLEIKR	binding result	binds
CA8 humanised J9M2 (antibody, human IgG1, kappa, V domains shown, humanised, human IgG1/kappa) VH: QVQLVQSGAEVKKPGSSVKVSCKGSGYTFTNYWMHWVRQAPGQGLEWIGATYRGHSDTYYNQKFKGRATLTADTSTSTAYMELSSLRSEDTAVYYCTRGAIYDGYDVLDNWGQGTLVTVSS VL: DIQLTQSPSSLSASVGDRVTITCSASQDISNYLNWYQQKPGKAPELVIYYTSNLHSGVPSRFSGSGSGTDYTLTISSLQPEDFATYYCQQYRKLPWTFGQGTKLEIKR	binding result	binds
